test: Cytotoxicity against human Raji cells assessed as cell viability at 3.2 nmol by trypan blue assay; settings: raji
Measured quantity: viability at 3.2 nmol

Asked: So what's the measured viability at 3.2 nmol for this one? COc1c2ccccc2nc2occc12
Given back: > 80%

====

test: Cytotoxicity against human Raji cells assessed as cell viability at 0.32 nmol by trypan blue assay; conditions: raji
Measured quantity: viability at 0.32 nmol

Asked: So what's the measured viability at 0.32 nmol for this one? COc1c2ccccc2nc2occc12
Given back: > 80%

====

assay: Cytotoxicity against human Raji cells assessed as cell viability at 32 nmol by trypan blue assay; conditions: Raji cells
viability at 32 nmol values by entry
Write the answer as a number in %, unit excluded.

Worked set:
Asked: So what's the measured viability at 32 nmol for this one? COc1ccc2c(OC)c(CC=C(C)C)c(=O)[nH]c2c1OC
Given back: 60

Asked: So what's the measured viability at 32 nmol for this one? CC(C)=CCc1cc(/C=C/C=O)ccc1O
Given back: 60

Asked: So what's the measured viability at 32 nmol for this one? OC/C=C/c1ccc2c(c1)OCO2
Given back: 70

---
Asked: So what's the measured viability at 32 nmol for this one? COc1cc(=O)n(C)c2c(OC)cccc12
Given back: 60

Asked: So what's the measured viability at 32 nmol for this one? COc1ccc2c(OC)c3ccoc3nc2c1
Given back: 60

Asked: So what's the measured viability at 32 nmol for this one? COc1cc2ccc(=O)oc2c2c1OC(C)(C)C=C2
Given back: 60

Asked: So what's the measured viability at 32 nmol for this one? O=C(O)/C=C/c1ccc(O)cc1
Given back: 60

Asked: So what's the measured viability at 32 nmol for this one? COc1cc(/C=C/C(=O)O)ccc1OCC=C(C)C
Given back: 70

Asked: So what's the measured viability at 32 nmol for this one? COc1cc(C=O)cc(OC)c1O
Given back: 60

====

test: Cytotoxicity against human Raji cells assessed as cell viability at 32 nmol by trypan blue assay; details: raji
Measured quantity: viability at 32 nmol

Asked: So what's the measured viability at 32 nmol for this one? COc1c2ccccc2nc2occc12
Given back: 60%

====

viability at 3.2 nmol values by entry
assay: Cytotoxicity against human Raji cells assessed as cell viability at 3.2 nmol by trypan blue assay; conditions: Raji cells

Asked: So what's the measured viability at 3.2 nmol for this one? OC/C=C/c1ccc2c(c1)OCO2
Given back: > 80%

Asked: So what's the measured viability at 3.2 nmol for this one? COc1cc(/C=C/C(=O)O)ccc1OCC=C(C)C
Given back: > 80%

Asked: So what's the measured viability at 3.2 nmol for this one? COc1ccc2c(OC)c(CC=C(C)C)c(=O)[nH]c2c1OC
Given back: > 80%

Asked: So what's the measured viability at 3.2 nmol for this one? O=C(O)/C=C/c1ccc(O)cc1
Given back: > 80%

Asked: So what's the measured viability at 3.2 nmol for this one? COc1cc2ccc(=O)oc2c2c1OC(C)(C)C=C2
Given back: > 80%

---
Asked: So what's the measured viability at 3.2 nmol for this one? COc1ccc2c(OC)c3ccoc3nc2c1
Given back: > 80%

Asked: So what's the measured viability at 3.2 nmol for this one? COc1cc(=O)n(C)c2c(OC)cccc12
Given back: > 80%

Asked: So what's the measured viability at 3.2 nmol for this one? COc1cc(C=O)cc(OC)c1O
Given back: > 80%

Asked: So what's the measured viability at 3.2 nmol for this one? CC(C)=CCc1cc(/C=C/C=O)ccc1O
Given back: > 80%
